System: M19-MEL melanoma
Assay: NCI tumour cell line growth inhibition, 48 h
reported metric: TGI

- Cc1ccc(C(=O)C#Cc2c[nH]c(=O)[nH]c2=O)cc1: 36.5 µM
- COC(=O)C(Cc1ccccc1)NC(=O)Cn1ccnc1[N+](=O)[O-] (stereo not given): > 100 µM
- O=C(c1nc2ccc(Cl)cc2[nH]c1=O)C(O)c1ccc2c(c1)OCO2 (stereo not given): > 100 µM
- NC(=O)NC1=NC(Cc2ccccc2)C(=O)N1Cc1ccccc1 (stereo not given): > 100 µM
- CC(C(=O)O)/C(=C\c1ccc2c(c1)OCO2)C(=O)O (stereo not given): > 100 µM
- COc1ccccc1C(N)c1ccccc1 (stereo not given): > 100 µM
- N#CCCOCN(CO)c1nc(N(CO)COCCC#N)nc(N(CO)COCCC#N)n1: 50 µM
- O=C1c2cc([N+](=O)[O-])cc3cc([N+](=O)[O-])cc(c23)C(=O)N1CCCNCCNCCCN1C(=O)c2cc([N+](=O)[O-])cc3cc([N+](=O)[O-])cc(c23)C1=O: 0.752 µM
- COc1ccc(-c2cc(-c3cc(C)ccc3O)[nH]c(=O)n2)cc1: > 100 µM
- CCCc1nc(NC#N)nc(C(=O)NC23CC4CC(CC(C4)C2)C3)c1C: > 100 µM

* * *

Tested on: HOP-62 NSCLC
Assay: NCI tumour cell line growth inhibition, 48 h; in the data active = GI50 below about 0.43 µM; inactive = the rest
Possible outcomes: T for active, F for inactive

• C=C(C)[C@@H]1CC[C@]2(C(=O)O)CC[C@]3(C)[C@H](CC[C@@H]4[C@@]5(C)C/C(=C/c6ccc(OC)cc6)C(=O)C(C)(C)[C@@H]5CC[C@]43C)[C@@H]12 = F
• CC1OC(n2c3ccccc3c3c4c(c5c6ccccc6[nH]c5c32)C(=O)N(CCN2CCOCC2)C4=O)CC(O)C1O (configuration not stated) = F
• COC1=CC(c2ccc[nH]2)=N/C1=C\c1[nH]c(C)c(C(C)=O)c1C = F
• C=CC[C@@H]1/C=C(\C)C[C@H](C)C[C@H](OC)[C@H]2O[C@@](O)(C(=O)C(=O)N3CCCC[C@H]3C(=O)O[C@H](/C(C)=C/C3CC[C@@H](O)[C@H](OC)C3)[C@H](C)[C@@H](O)CC1=O)[C@H](C)C[C@@H]2OC (some centres not stated) = F
• COc1ccc(-c2nc(N3CCOCC3)c3sc(CN(C)c4ncc(C(=O)NO)cn4)cc3n2)cn1 = T
• Cc1[nH]nc2ccc3nc(-c4ccc5[nH]ncc5c4)c4c(c3c12)CCCC4 = F
• C/C(=C\CCc1ccsc1)CC/C=C(\C)CCCN1CCC(CO)CC1 = F
• CCN(CC)CCCC(Cc1ccccc1)Nc1c2ccc(Cl)cc2nc2ccc(OC)cc12 (configuration not stated) = F
• Cc1c(-c2nnc(-c3ccc(F)cc3)o2)nnn1-c1ccnc2c(C(F)(F)F)cccc12 = F
• COc1cc(C2CC(c3ccccc3)=NN2C(C)=O)cc(OC)c1OC (configuration not stated) = F
• COc1cc(-n2cnc(-c3ccc(Cl)cc3)c2)cc(OC)c1OC = F
• N#Cc1c(N)nc(NCc2ccccc2)c(C#N)c1-c1ccccc1Cl = F
• CCOC(=O)c1c(Cl)c2c(n1Cc1cccc(OC)c1)-c1oncc1CC2 = F
• COc1ccc2cc(Cn3cc[n+](Cc4ccc5ccccc5c4)c3)ccc2c1 = F
• Cc1cc2cc3cc(C)c(N)cc3[n+](C)c2cc1N = F
• Cn1ccnc1C(=O)/C=C/c1ccc(CC(=O)Nc2ccc(F)cc2)cc1 = F
• Cc1sc(NC2=NC(=O)/C(=C\c3ccccc3)S2)nc1-c1nc(NC2=NC(=O)/C(=C\c3ccccc3)S2)sc1C = F
